Assay: Drug (Aza) release from Aza-Flu conjugates in PB, CM and 1.25% LH by time-dependent fluorescence spectra
OBSERVABLE: half-life

State the recorded half-life for this entry: COc1cc(C2c3[nH]c4ccccc4c3CC3COC(=O)N32)cc(OC)c1O/C=C/C(=O)Oc1ccc2c(c1)Oc1cc(OCC(=O)O)ccc1C21OC(=O)c2ccccc21 (stereo not drawn) [Aza-Flu-COOH]
~1.8 h

----------
Assay: Time-dependent absorption/fluorescence CLB cleavage profiles of XCy-CLB and OCTA-G-XCy-CLB in PB and cell medium
Type: in vitro ADME
Conditions: bovine; in CM (cell medium pH 7.4, esterase present); read-out: CLB release half-life τ1/2 (converted)
OBSERVABLE: half-life

Can you share its half-life? I mean this molecule: CC1(C)C(/C=C/C2=C3Oc4cc(OC(=O)CCCc5ccc(N(CCCl)CCCl)cc5)ccc4C=C3CCC2)=[N+](CCCCCC(=O)O)c2ccccc21 [XCy-CLB]
~40 min

Values from patent US20220273823A1
